# maps each entry to its Blackgrass plant response rating
# System: blackgrass (Alopecurus myosuroides)
# PROTOCOL: Test B pre-/postemergence
# Type: in vivo
# CONDITION: Rate 62 g/ha, Preemergence
Lab note: jot down the number only; don't add units.

Please review the entries below; each comes with its answer.
COMPOUND: Cc1cnc(-n2cnc(C(F)(F)F)n2)nc1Cn1ccc(C(F)(F)F)n1 [Compound 51]
Blackgrass plant response rating: 7
//
COMPOUND: Cc1cnc(-c2ccc(Cl)cc2)nc1Cc1cccc(C#N)c1 [Compound 33]
Blackgrass plant response rating: 0
//
COMPOUND: Cc1cnc(-c2ccc(F)cc2F)nc1Cc1cccc(C#N)c1 [Compound 34]
Blackgrass plant response rating: 0
//
COMPOUND: Cc1cnc(-c2ccc(C(F)(F)F)cc2)nc1Cn1ccc(C(F)(F)C(F)(F)F)n1 [Compound 14]
Blackgrass plant response rating: 0
//
COMPOUND: Cc1cnc(-c2ccc(C(F)(F)F)cc2)nc1C(C)c1cccc(C(F)(F)F)c1 (racemic) [Compound 19]
Blackgrass plant response rating: 0

Endpoint output: Blackgrass plant response rating of Cc1cnc(-c2ccc(C(F)(F)F)cc2)nc1Cn1cc(I)cn1 [Compound 12] . Value?
1
